system: Hsp27 GPG (isoleucine and valine of the IPV motif mutated to glycine) (human) (UniProt P04792)
run_description: ITC; peptide (1 mM) titrated into a cell with Hsp27 proteins (100 µM); SEC buffer (50 mM sodium phosphate, 100 mM NaCl); 25 °C; one-site binding model
endpoint_label: pKd
The scale used: pKd is minus the common logarithm of the concentration in molar units.

Just so you know, measured pKd for EITIPVTHE [Hsp27 IPV H peptide (…)] came out at 5.00
